# Target: human VR1 (Homo sapiens, UniProt Q8NER1)
# Construct: expressed in transfected cells; host or cells: HEK293
# Sequence (Q8NER1 whole entry): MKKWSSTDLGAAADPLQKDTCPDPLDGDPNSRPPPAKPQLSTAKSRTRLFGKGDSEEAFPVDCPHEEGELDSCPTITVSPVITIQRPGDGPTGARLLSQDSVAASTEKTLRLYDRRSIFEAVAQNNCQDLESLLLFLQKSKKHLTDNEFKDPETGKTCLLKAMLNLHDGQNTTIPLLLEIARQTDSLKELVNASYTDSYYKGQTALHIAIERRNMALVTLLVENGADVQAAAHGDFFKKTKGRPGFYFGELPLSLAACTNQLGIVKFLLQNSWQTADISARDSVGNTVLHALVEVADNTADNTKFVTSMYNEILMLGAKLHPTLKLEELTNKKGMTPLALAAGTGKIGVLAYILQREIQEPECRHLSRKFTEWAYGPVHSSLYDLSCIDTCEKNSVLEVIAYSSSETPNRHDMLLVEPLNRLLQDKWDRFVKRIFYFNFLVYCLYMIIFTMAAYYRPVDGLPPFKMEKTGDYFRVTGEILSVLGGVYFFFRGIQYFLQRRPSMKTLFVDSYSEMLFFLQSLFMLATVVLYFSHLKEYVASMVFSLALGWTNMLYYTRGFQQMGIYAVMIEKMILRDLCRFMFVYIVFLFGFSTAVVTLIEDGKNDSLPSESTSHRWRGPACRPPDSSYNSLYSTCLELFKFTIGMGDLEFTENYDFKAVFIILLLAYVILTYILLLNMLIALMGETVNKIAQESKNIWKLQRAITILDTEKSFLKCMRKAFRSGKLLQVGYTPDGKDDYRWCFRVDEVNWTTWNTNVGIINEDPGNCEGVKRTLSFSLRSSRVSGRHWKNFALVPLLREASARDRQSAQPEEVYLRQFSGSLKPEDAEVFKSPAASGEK
# Protocol description: Human VR1 [3H] RTX binding assay
# Setup conditions: 3H-RTX binding; compound at 1 μM
Measurement type: inhibition at 1 µM (%)

The following compounds have reported results that may help.
O=C(Nc1cnc2ccccc2c1)c1cc2cc(Cl)ccc2[nH]1; 36
CC(=O)N(c1ccc(C(=O)Nc2cnc3ccccc3c2)cc1)C1CCCCC1; 1
CN(C(=O)c1ccc(N(C)C2CCCCC2)cc1)c1cnc2ccccc2c1; 12

P. O=C(Nc1cnc2ccccc2c1)c1ccc(NC2CCCC2)cc1
Q. CN1CCc2cc(C(=O)Nc3cnc4ccccc4c3)ccc21
Query: P or Q : whose inhibition at 1 µM is greater? Answer with the label corresponding to your selection.
Response: P

---

# Target: human VR1 (Homo sapiens)
# Construct: expressed in transfected cells; host or cells: HEK293
# Protocol description: Human VR1 functional assay (intracellular Ca++, FLIPR, capsaicin challenge)
# Assay type: cell-based
# Setup conditions: read-out: FLIPR functional assay IC50 hVR1 60 min, 60 min
Measurement type: pIC50
Scale note: pIC50 = -log10(concentration in M).

Data point: "CCCCCCCCN(C)c1ccc(C(=O)Nc2cnc3ccccc3c2)cc1" ; pIC50 = 6.72

---

# Target: human VR1 (Homo sapiens)
# Construct: expressed in transfected cells; host or cells: HEK293
# Protocol description: Human VR1 functional assay (intracellular Ca++, FLIPR, capsaicin challenge)
# Format: cell-based
# Setup conditions: hVR1, capsaicin challenge, read-out: FLIPR functional assay IC50 hVR1
pIC50: −log10 of the molar value.
Measurement type: pIC50

The following molecules have reported results that may help.
CN(Cc1ccccc1)c1ccc(C(=O)Nc2cnc3ccccc3c2)cc1; 5.64
CCCN(C)c1ccc(CCC(=O)Nc2cnc3ccccc3c2)cc1; 6.30

1. CN(c1ccc(CCC(=O)Nc2cnc3ccccc3c2)cc1)C1CCCCC1
2. O=C(Nc1cnc2ccccc2c1)c1ccc(NC2CCCCCC2)cc1
3. O=C(Nc1cnc2ccccc2c1)c1ccc(NCCc2ccccc2)cc1
4. CN(c1ccc(C(=O)Nc2cnc3ccccc3c2Cl)cc1)C1CCCCC1
Query: Hey, quick one: sort these by pIC50, low to high? List the labels in the requested order.
Response: 3, 1, 2, 4
(3: 5.04, 1: 5.41, 2: 6.14, 4: 6.97)

---

# Target: human VR1 (Homo sapiens, UniProt Q8NER1)
# Construct: expressed in transfected cells; host or cells: HEK293
# Protocol description: Human VR1 [3H] RTX binding assay
# Setup conditions: 3H-RTX binding; compound at 1 μM
# Description: Compounds of the present invention were tested for their ability to inhibit the binding of [^3H] RTX to hVR1 receptors in a [^3H] HEK293 cells were transfected with human VR1 vanilloid receptors and washed with Hank's Balanced Salt Solution, dissociated with cell dissociation buffer (Sigma), and then centrifuged at 1000×g for 5 min. […] Approximately 120 μg protein/ml from membranes were incubated with indicated concentrations of [^3H] […] Bound radioactivity was quantified by scintillation counting. […]
Measurement type: inhibition at 1 µM (%)

The following compounds have reported results that may help.
CCCCCNc1ccc(C(=O)Nc2cnc3ccccc3c2)c(Cl)c1; 40
O=C(Nc1cnc2ccccc2c1)c1cccc(NC2CCCCC2)c1; 1

a. O=C(Nc1cnc2ccccc2c1)c1ccc(N(CCc2ccccc2)CC2CCCCC2)cc1
b. O=C(Nc1cnc2ccccc2c1)c1ccc(N2CCSCC2)cc1
Query: a or b : whose inhibition at 1 µM is greater? Answer with the label corresponding to your selection.
Response: a

---

# Target: human VR1 (Homo sapiens, UniProt Q8NER1)
# Construct: expressed in transfected cells; host or cells: HEK293
# Protocol description: Human VR1 [3H] RTX binding assay
# Setup conditions: 3H-RTX binding; compound at 1 μM
Measurement type: inhibition at 1 µM (%)

The following compounds have reported results that may help.
CCCCCCCCN(C)c1ccc(C(=O)Nc2cnc3ccccc3c2)cc1; 105
CN(c1ccc(C(=O)Nc2cnc3ccccc3c2)cc1)C1CCCCCC1; 100
CC(C)(C)C1CCC(C(=O)Nc2cnc3ccccc3c2)CC1 (stereo not drawn); 97

a. CCCN(CCc1ccccc1)c1ccc(C(=O)Nc2cnc3ccccc3c2)cc1
b. O=C(CCc1ccc2c(c1)CCN2CC1CCCCC1)Nc1cnc2ccccc2c1
c. O=C(Nc1cnc2ccccc2c1)c1ccc2c(c1)CCN2
Query: Sort the 3 compounds by inhibition at 1 µM; largest first, smallest last. List the labels in the requested order.
Response: a, b, c

---

# Target: human VR1 (Homo sapiens, UniProt Q8NER1)
# Construct: expressed in transfected cells; host or cells: HEK293
# Protocol description: Human VR1 [3H] RTX binding assay
# Setup conditions: 3H-RTX binding; hVR1; read-out: 3H-RTX binding assay Ki hVR1
pKi: −log10 of the molar value.
Measurement type: pKi

The following compounds have reported results that may help.
Cc1cc(C(=O)Nc2cnc3ccccc3c2)ccc1NCC1CCCCC1; 7.06
O=C(Nc1cnc2ccccc2c1)c1ccc(N2CCCCCCCC2)cc1 [4-Azonan-1-yl-N-quinolin-3-yl-benzamide]; 7.93

P. CC(C)(C)C1CCC(C(=O)Nc2cnc3ccccc3c2)CC1 (stereo not shown)
Q. CC1(C)CCC(C)(C)c2cc(C(=O)Nc3cnc4ccccc4c3)ccc21
Query: P or Q : whose pKi is greater? Answer with the label corresponding to your selection.
Response: Q

---

# Target: human VR1 (Homo sapiens, UniProt Q8NER1)
# Construct: expressed in transfected cells; host or cells: HEK293
# Protocol description: Human VR1 [3H] RTX binding assay
# Setup conditions: 3H-RTX binding; compound at 1 μM
Measurement type: inhibition at 1 µM (%)

The following compounds have reported results that may help.
CCCCCC=CCCCN(C)c1ccc(C(=O)Nc2cnc3ccccc3c2)cc1; 104
CCCCCN1CCc2cc(C(=O)Nc3cnc4ccccc4c3)ccc21; 98
O=C(Nc1cnc2ccccc2c1)c1ccc(N2CCC(N3CCCCC3)CC2)cc1; 8
CN(CCCc1ccccc1)c1ccc(C(=O)Nc2cnc3ccccc3c2)cc1; 97
CCCCCN(C)c1cccc(C(=O)Nc2cnc3ccccc3c2)c1; 72
CCCCCCN(CCCCCC)c1ccc(C(=O)Nc2cnc3ccccc3c2)cc1 [4-Dihexylamino-N-quinolin-3-yl-benzamide]; 74

1. CCCCCCCN(C)c1ccc(C(=O)Nc2cnc3ccccc3c2)cn1
2. CCCCCCCNc1cccc(C(=O)Nc2cnc3ccccc3c2)c1 [3-Heptylamino-N-quinolin-3-yl-benzamide]
Query: 1 or 2 : whose inhibition at 1 µM is greater? Answer with the label corresponding to your selection.
Response: 1
(1: 90%, 2: 20%)

---

# Target: human VR1 (Homo sapiens)
# Construct: expressed in transfected cells; host or cells: HEK293
# Protocol description: Human VR1 [3H] RTX binding assay
# Setup conditions: 3H-RTX binding; hVR1; read-out: 3H-RTX binding assay Ki hVR1
Measurement type: Ki (nM)

A. CCCN(C)c1ccc(CCC(=O)Nc2cnc3ccccc3c2)cc1
B. CCCCCc1ccc(C(=O)Nc2cnc3ccccc3c2)s1
Query: For the pair A and B , which entry has the numerically smaller recorded Ki? Answer with the label corresponding to your selection.
Response: A
(A: 196 nM, B: 647 nM)

a. CCCCCN(Cc1ccccc1)c1ccc(C(=O)Nc2cnc3ccccc3c2)cc1
b. O=C(Nc1cnc2ccccc2c1)c1ccc(N2CCC(C(=O)c3ccccc3)CC2)cc1
c. O=C(Nc1cnc2ccccc2c1)c1ccc(N2CC3CCCC(C3)C2)nc1
Query: Sort the 3 compounds by Ki; largest first, smallest last. List the labels in the requested order.
Response: b, a, c

---

# Target: human VR1 (Homo sapiens)
# Construct: expressed in transfected cells; host or cells: HEK293
# Protocol description: Human VR1 [3H] RTX binding assay
# Setup conditions: 3H-RTX binding; compound at 1 μM
Measurement type: inhibition at 1 µM (%)

The following molecules have reported results that may help.
CCCn1ccc2cc(CCC(=O)Nc3cnc4ccccc4c3)ccc21; 59
O=C(Nc1cnc2ccccc2c1)c1ccc(NCCc2ccccc2)cc1; 31

I. O=C(Nc1cnc2ccccc2c1)c1ccc(N2CCC(c3ccccc3)CC2)cc1
II. CCCCCNc1ccccc1C(=O)Nc1cnc2ccccc2c1 [2-Pentylamino-N-quinolin-3-yl-benzamide]
III. CCC(C)(C)c1ccc(CCCC(=O)Nc2cnc3ccccc3c2)cc1
Query: Hey, quick one: sort these by inhibition at 1 µM, low to high? List the labels in the requested order.
Response: II, I, III
(II: 23%, I: 34%, III: 65%)

---

# Target: human VR1 (Homo sapiens)
# Construct: expressed in transfected cells; host or cells: HEK293
# Protocol description: Human VR1 [3H] RTX binding assay
# Setup conditions: 3H-RTX binding; hVR1; read-out: 3H-RTX binding assay Ki hVR1
Measurement type: Ki (nM)

CCC(C)(C)c1cc(OC)c(CCC(=O)Nc2cnc3ccccc3c2)c(OC)c1; 52
CN(CC1CCCCC1)c1ccc(C(=O)Nc2cnc3ccccc3c2)cc1; 15.7
O=C(Nc1cnc2ccccc2c1)c1ccc(N2CCC(Cc3ccccc3)CC2)cc1 [Example 180]; 17.6
CCCCCNc1ccc(C(=O)Nc2cnc3ccccc3c2)cc1C; 73.5
CN(C(=O)c1ccc(NC2CCCCC2)cc1)c1cnc2ccccc2c1; 2160
CN(c1ccc(C(=O)Nc2cnc3ccccc3c2)cc1)C1CCCC1; 27.9
CC1CC(C)CN(c2ccc(C(=O)Nc3cnc4ccccc4c3)cc2)C1 (stereo not shown); 86.1
CCCCOc1ccc(C(=O)Nc2cnc3ccccc3c2)cc1 [4-Butoxy-N-quinolin-3-yl-benzamide]; 155

P. CCCCCc1ccc(CCC(=O)Nc2cnc3ccccc3c2)cc1
Q. CC(C)(C)c1ccc(CCC(=O)Nc2cnc3ccccc3c2)cc1
R. CCCCN(C)c1ccc(C(=O)Nc2cnc3ccccc3c2)cc1
S. O=C(Nc1cnc2ccccc2c1)c1ccc(N2CCCCCC2)nc1
Query: Hey, quick one: sort these by Ki, low to high? List the labels in the requested order.
Response: Q, R, S, P
(Q: 2.03 nM, R: 83.3 nM, S: 124 nM, P: 181 nM)

Taken from patent US8394828B2.
